Ref: patent US8338472B2

assayTarget: human GR (Homo sapiens)
Construct: U937 cells contain an endogenous glucocorticoid receptor (GR); endogenous in cells; host or cells: U937 cells stably transfected with the TNF-alpha promoter/beta-lactamase reporter
Sequence (P04150 whole entry): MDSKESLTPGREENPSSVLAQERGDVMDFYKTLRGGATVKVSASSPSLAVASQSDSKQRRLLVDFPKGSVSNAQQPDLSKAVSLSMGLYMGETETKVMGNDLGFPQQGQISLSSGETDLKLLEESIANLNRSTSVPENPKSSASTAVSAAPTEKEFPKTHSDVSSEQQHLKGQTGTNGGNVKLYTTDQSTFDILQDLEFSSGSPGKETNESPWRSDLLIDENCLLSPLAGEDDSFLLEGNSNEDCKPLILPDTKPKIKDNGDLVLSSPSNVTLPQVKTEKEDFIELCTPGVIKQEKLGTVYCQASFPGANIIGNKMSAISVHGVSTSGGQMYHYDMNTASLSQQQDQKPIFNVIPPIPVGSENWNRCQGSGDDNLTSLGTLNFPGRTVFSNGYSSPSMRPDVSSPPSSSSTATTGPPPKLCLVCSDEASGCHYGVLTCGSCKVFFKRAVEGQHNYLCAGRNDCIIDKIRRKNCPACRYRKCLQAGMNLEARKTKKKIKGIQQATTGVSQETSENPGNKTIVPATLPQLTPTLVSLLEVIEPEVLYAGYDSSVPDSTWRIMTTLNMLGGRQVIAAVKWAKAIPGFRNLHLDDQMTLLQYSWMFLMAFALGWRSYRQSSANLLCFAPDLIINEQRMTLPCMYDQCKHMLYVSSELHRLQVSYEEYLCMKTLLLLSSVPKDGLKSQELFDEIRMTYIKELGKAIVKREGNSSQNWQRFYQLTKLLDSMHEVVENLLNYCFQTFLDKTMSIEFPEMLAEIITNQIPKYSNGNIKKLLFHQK
protocol: Transrepression Assay (GITAR), TNFα-β-lactamase reporter gene in U937 cells
Format: cell-based
assayConditions: GITAR Emax minus GRAMMER Emax; Table 1
Would you mind telling me the reported GITAR Greater than by GRAMMER % SEP of each entry?
Numbers only, in %.

- CN(CC(O)C(F)(F)F)C(=O)[C@H]1CCC2=Cc3c(cnn3-c3ccccc3)C[C@@]21C (stereo partly drawn) [Compound 75]: 18.9
- CCCN(CC(O)C(F)(F)F)C(=O)[C@H]1CCC2=Cc3c(cnn3-c3ccc(F)cc3)C[C@@]21C (stereo partly drawn): 14.0
- CCCN(CCC)C(=O)[C@H]1CCC2=Cc3c(cnn3-c3ccc(F)cc3)C[C@@]21C: 22.2
- CN(CC(O)C(F)(F)F)C(=O)[C@H]1CCC2=Cc3c(cnn3-c3ccc(F)cc3)C[C@@]21C (stereo partly drawn): 24.5
- CC1CN(C(=O)[C@H]2CCC3=Cc4c(cnn4-c4ccc(F)cc4)C[C@@]32C)CC(C)O1 (stereo partly drawn): 2.3
- C[C@]12Cc3cnn(-c4ccc(F)cc4)c3C=C1CC[C@@H]2C(=O)NC(Cc1ccccc1)c1ccccc1 (stereo partly drawn): 24.5
- CCCCN(CCC)C(=O)[C@H]1CCC2=Cc3c(cnn3-c3ccc(F)cc3)C[C@@]21C: 24.0
- C[C@]12Cc3cnn(-c4ccc(F)cc4)c3C=C1CC[C@@H]2C(=O)N(CCO)c1ccccc1: 14.4
- C[C@]12Cc3cnn(-c4ccc(F)cc4)c3C=C1CC[C@@H]2C(=O)N(Cc1ccccc1F)CC(O)C(F)(F)F (stereo partly drawn): 1.5
- CC(C)CN(C)C(=O)[C@H]1CCC2=Cc3c(cnn3-c3ccc(F)cc3)C[C@@]21C: 37.4

Field: GITAR Greater than by GRAMMER % SEP. Fill in for each record below.
1. CCCCN(CC(C)O)C(=O)[C@H]1CCC2=Cc3c(cnn3-c3ccc(F)cc3)C[C@@]21C (stereo partly drawn)
2. CCN(CC)C(=O)[C@H]1CCC2=Cc3c(cnn3-c3ccc(F)cc3)C[C@@]21C
3. C[C@]12Cc3cnn(-c4ccc(F)cc4)c3C=C1CC[C@@H]2C(=O)N(CC1CCC1)CC1CCCO1 (stereo partly drawn)
4. CCCN(CC(O)C(F)(F)F)C(=O)[C@H]1CCC2=Cc3c(cnn3-c3ccccc3)C[C@@]21C (stereo partly drawn)
5. CC(C)CCN(CCC(C)C)C(=O)[C@H]1CCC2=Cc3c(cnn3-c3ccc(F)cc3)C[C@@]21C

1. 20.4
2. 22.3
3. 9.5
4. 21.0
5. 12.4
